What viability, T/C was measured for each of the following?
Test system: NCI-H1417 complex spheroids, growth % test/control
methodSummary: Anticancer human tumor NCI-H1417 cell line growth inhibition [Asc];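 note: spheroids exposed to compounds for 7 days; 100% = DMSO vehicle control wells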
experimentalContext: second compound 0.03 µM; first compound 1 µM; active compounds read low
Quick note: give the figure in %, leave out the unit.

viability, T/C of C=CC(=O)N1CCN(c2nc(=O)n(-c3c(C)ccnc3C(C)C)c3nc(-c4c(O)cccc4F)c(F)cc23)C(C)C1 (centres undefined) + CCN1C(C(=O)NC23CCC(C(=O)O)(CC2)CC3)C(c2cccc(Cl)c2F)C2(C(=O)Nc3cc(Cl)ccc32)C12CCCCC2 , assay on NCI-H1417 complex spheroids, growth % test/control, is 101

viability, T/C of O=C(c1cc(Cc2n[nH]c(=O)c3ccccc23)ccc1F)N1CCN(C(=O)C2CC2)CC1 + CCN1C(C(=O)NC23CCC(C(=O)O)(CC2)CC3)C(c2cccc(Cl)c2F)C2(C(=O)Nc3cc(Cl)ccc32)C12CCCCC2 , assay on NCI-H1417 complex spheroids, growth % test/control, is 82.3

viability, T/C of C=C(F)C(=O)N1CCN(c2nc(OCC3CCCN3C)nc3c2CCN(c2cccc4cccc(Cl)c24)C3)CC1CC#N (centres undefined) + CCN1C(C(=O)NC23CCC(C(=O)O)(CC2)CC3)C(c2cccc(Cl)c2F)C2(C(=O)Nc3cc(Cl)ccc32)C12CCCCC2 , assay on NCI-H1417 complex spheroids, growth % test/control, is 95.4

viability, T/C of COc1c(OCCCN2CCOCC2)ccc2c3n(c(=NC(=O)c4cnc(N)nc4)nc12)CCN3 + CCN1C(C(=O)NC23CCC(C(=O)O)(CC2)CC3)C(c2cccc(Cl)c2F)C2(C(=O)Nc3cc(Cl)ccc32)C12CCCCC2 , assay on NCI-H1417 complex spheroids, growth % test/control, is 59.2
